Origin of measurements: patent US20240239788A1

# maps each entry to its log10(IC50)
target: KRAS G12D / Ras binding domain of C-RAF (Homo sapiens (Human), UniProt P01116, G12D); assay: RAS:RAF-RBD binding assay (cRaf), TR-FRET; conditions: IC50 (nM) (cRaf), biotinylated KRAS G12D, GST-C-RAF RBD
Sequence (P01116 other isoform, or with tags, fused parts or gaps G12D (already in the parent)): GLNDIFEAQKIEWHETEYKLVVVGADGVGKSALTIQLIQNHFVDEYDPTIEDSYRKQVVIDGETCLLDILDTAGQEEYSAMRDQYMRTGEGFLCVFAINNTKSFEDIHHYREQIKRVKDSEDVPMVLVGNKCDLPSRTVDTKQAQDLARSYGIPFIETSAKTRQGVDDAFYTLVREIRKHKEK
READOUT KIND: log10(IC50) (log10 of the value in nM)

* CN(C)CC1(COc2nc(N3C[C@@H]4CC[C@H]3CN4)c3cc(F)c(-c4cc(O)cc5ccccc45)c(F)c3n2)CC1 [Example 7] | 3.48
* CN1C[C@H](F)C[C@H]1COc1nc(N2C[C@H]3CC[C@@](C)(C2)N3)c2cc(F)c(-c3cc(O)cc4ccccc34)c(F)c2n1 [Ex 70] | 3.73
* CN(C)CC1(COc2nc(N3C[C@H]4NC(C)(C[C@H]4O)C3)c3cc(Cl)c(-c4cc(O)cc5ccccc45)c(F)c3n2)CC1 (stereo in doubt) [Example 42] | 4.31
* CN(C)CC1(COc2nc(N3CC4CCC(C3)N4)c3cc(Cl)c(-c4cc(O)c(F)c5ccccc45)c(F)c3n2)CC1 [Example 57] | 4.50
* CN(C)CC1(COc2nc(N3CC4CCC(F)(C3)N4)c3cc(Cl)c(-c4cc(O)cc5ccccc45)c(F)c3n2)CC1 (stereo not drawn) [Example 34] | 4.58
* CN(C)CC1(COc2nc(N3C[C@H]4C[C@@H](O)[C@@H](C3)N4)c3cc(Cl)c(-c4cc(O)cc5ccccc45)c(F)c3n2)CC1 (single isomer, unassigned) [Example 18b] | 3.43
